meta.source: the Immune Epitope Database (IEDB)

biological target: HLA-A*26:01; assay: IEDB peptide-MHC binding, purified MHC/competitive/fluorescence; filed as Kd, often an IC50 or EC50 that approximates it; bounds were set here for any values at or beyond the usual limits of such assays; conditions: source organism: Rickettsia typhi str. Wilmington
pKd: −log10 of the molar value.
Measurement label: pKd

{"Entry sequence": "QLEVRSTEV", "Target desc": "HLA-A*26:01", "Measured": "≤ 4.70"}

----------
target: HLA-C*14:02; assay: IEDB peptide-MHC binding, purified MHC/direct/fluorescence; filed as Kd, often an IC50 or EC50 that approximates it; bounds were set here for any values at or beyond the usual limits of such assays; conditions: source organism: Burkholderia vietnamiensis G4

{"Entry sequence": "WMRWGGWPF", "Target desc": "HLA-C*14:02", "Kd": "4.72 µM"}
